Target: 5-HT1D receptor (Homo sapiens, UniProt P28221)
Construct: gene HTR1D; full-length human recombinant receptor in CHO-K1 cells (Ogeda); crude membranes
Sequence (P28221 whole entry): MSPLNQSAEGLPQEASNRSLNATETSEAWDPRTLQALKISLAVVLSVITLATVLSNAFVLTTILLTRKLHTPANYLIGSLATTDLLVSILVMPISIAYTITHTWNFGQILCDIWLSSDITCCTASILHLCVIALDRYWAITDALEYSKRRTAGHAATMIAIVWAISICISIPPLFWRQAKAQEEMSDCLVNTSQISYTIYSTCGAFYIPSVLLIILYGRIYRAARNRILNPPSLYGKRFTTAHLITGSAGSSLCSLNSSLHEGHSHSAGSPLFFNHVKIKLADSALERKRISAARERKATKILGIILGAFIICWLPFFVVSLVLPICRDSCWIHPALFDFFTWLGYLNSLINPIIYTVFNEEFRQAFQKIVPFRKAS
Assay: biochemical
Format: CHO-K1 membranes
Set-up: radioligand competition binding on cell membranes, filtration and TopCount scintillation counting
Settings: radioligand displacement; read-out: 5‐HT1D / pIC50 (converted)
Structures can show the parent of a compound that is named as a salt.
measured.parameter: IC50 (nM)
Numeric only. Scale: nM

Prompt line: Entry under review: N#Cc1ccc(N2CCN(C(=O)COc3ccc4[nH]cc(CCN)c4c3)CC2)cc1 [Donitriptan hydrochloride] . Reported IC50?
Response line: 0.661

* * *

Biological target: 5-HT1A receptor (Homo sapiens, UniProt P08908)
Construct: gene HTR1A; full-length human recombinant receptor in CHO-K1 cells (Ogeda); crude membranes
Sequence (P08908 1-422): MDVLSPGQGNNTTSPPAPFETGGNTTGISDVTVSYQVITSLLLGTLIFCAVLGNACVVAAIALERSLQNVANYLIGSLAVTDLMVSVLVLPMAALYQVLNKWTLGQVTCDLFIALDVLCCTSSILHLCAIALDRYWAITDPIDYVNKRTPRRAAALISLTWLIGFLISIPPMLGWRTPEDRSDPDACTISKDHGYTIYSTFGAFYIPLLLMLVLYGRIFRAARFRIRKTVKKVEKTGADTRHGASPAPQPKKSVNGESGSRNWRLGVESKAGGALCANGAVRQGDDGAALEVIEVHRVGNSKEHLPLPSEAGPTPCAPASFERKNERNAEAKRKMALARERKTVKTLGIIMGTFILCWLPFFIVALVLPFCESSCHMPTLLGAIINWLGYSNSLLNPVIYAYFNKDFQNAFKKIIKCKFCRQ
Assay: biochemical
Type: CHO-K1 membranes
Set-up: radioligand competition binding on cell membranes, filtration and TopCount scintillation counting
Details: radioligand displacement; read-out: 5‐HT1A / pIC50 (converted)
Experimental: Competition binding was performed in duplicate in the wells of a 96‐well plate containing binding buffer (optimized for each receptor), cell membrane extracts (approximately 20,000 cells distributed in the 96‐well plate), radiotracer, and test agonist. Non‐specific binding was determined by co‐incubation with 200‐fold excess of competitor. […] The plates were incubated 15 min at room temperature on an orbital shaker and then counted with a TopCount™ (Perkin Elmer) for 1 min per well. […]
Counter-ions that a name gives are not always drawn.
measured.parameter: IC50 (nM)
Numeric only. Scale: nM

Here's what some known entries look like.
1) CNS(=O)(=O)CCc1ccc2[nH]cc(C3CCN(C)CC3)c2c1 [Naratriptan hydrochloride]	49
2) CNS(=O)(=O)Cc1ccc2[nH]cc(CCCN3CCN(c4ncncc4OC)CC3)c2c1 [Avitriptan fumarate]	63.1
3) CN(C)[C@@H]1CCc2[nH]c3ccc(NC(=O)c4ccc(F)cc4)cc3c2C1 [LY344864 hydrochloride]	759
4) N#Cc1ccc(N2CCN(C(=O)COc3ccc4[nH]cc(CCN)c4c3)CC2)cc1 [Donitriptan hydrochloride]	38
5) CNC1CCc2[nH]c3ccc(C(N)=O)cc3c2C1 (racemic) [Frovatriptan racemate]	148

Prompt line: Entry under review: CN1CCC[C@@H]1Cc1c[nH]c2ccc(CCS(=O)(=O)c3ccccc3)cc12 [Eletriptan hydrobromide] . Reported IC50?
Response line: 6.31

* * *

Molecular target: 5-HT1A receptor (Homo sapiens, UniProt P08908)
Construct: gene HTR1A; full-length human recombinant receptor in CHO-K1 cells (Ogeda); crude membranes
Assay: biochemical
Assay type: CHO-K1 membranes
Parameters: GTPγS agonist functional assay
Conditions: GTPγS
Structures can show the parent of a compound that is named as a salt.
The compounds listed here are annotated with their pEC50.
Expect pEC50 as a plain number equal to -log10 of the molar concentration.

1) CN1CCC[C@@H]1Cc1c[nH]c2ccc(CCS(=O)(=O)c3ccccc3)cc12 [Eletriptan hydrobromide]	6.38
2) CNS(=O)(=O)Cc1ccc2[nH]cc(CCCN3CCN(c4ncncc4OC)CC3)c2c1 [Avitriptan fumarate]	6.19
3) N#Cc1ccc(N2CCN(C(=O)COc3ccc4[nH]cc(CCN)c4c3)CC2)cc1 [Donitriptan hydrochloride]	6.74
4) CNC1CCc2[nH]c3ccc(C(N)=O)cc3c2C1 (racemic) [Frovatriptan racemate]	6.12

Prompt line: Hello, I am looking for reported pEC50 with 5-HT1A receptor (Homo sapiens, UniProt P08908) for CNS(=O)(=O)CCc1ccc2[nH]cc(C3CCN(C)CC3)c2c1 [Naratriptan hydrochloride] . Could you help?
Response line: 6.52

meta.source: paper PMC6965684
